- ASSAYED_SYSTEM: Plasma kallikrein (Homo sapiens, UniProt P03952)
- Sequence (P03952 20-390 limits assumed): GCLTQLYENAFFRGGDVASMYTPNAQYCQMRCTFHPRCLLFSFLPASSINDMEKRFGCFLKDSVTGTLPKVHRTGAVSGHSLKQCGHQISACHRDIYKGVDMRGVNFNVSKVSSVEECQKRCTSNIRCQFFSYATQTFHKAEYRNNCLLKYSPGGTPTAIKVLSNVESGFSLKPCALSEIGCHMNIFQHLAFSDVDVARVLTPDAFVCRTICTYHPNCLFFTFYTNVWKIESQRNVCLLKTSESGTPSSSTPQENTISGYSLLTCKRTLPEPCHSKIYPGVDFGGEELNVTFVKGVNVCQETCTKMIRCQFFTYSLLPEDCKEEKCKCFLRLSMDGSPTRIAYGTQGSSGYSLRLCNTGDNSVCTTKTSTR
- Sequence (P03952 391-638 limits assumed): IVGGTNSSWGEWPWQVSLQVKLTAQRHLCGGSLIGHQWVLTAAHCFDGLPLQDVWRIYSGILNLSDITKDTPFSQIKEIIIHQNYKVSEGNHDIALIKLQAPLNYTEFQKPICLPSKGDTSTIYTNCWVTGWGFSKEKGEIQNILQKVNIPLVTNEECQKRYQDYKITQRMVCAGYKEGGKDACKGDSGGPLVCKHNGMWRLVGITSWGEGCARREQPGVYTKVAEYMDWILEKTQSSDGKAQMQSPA
- ASSAY_OVERVIEW: In vitro concentration of compound required to inhibit 50% of Kallikrein

[
  {
    "SMILES_NOTATION": "COC(=O)c1oc2c(sc3ccccc32)c1OC(=O)C(C)C",
    "IC50 / µM": 7.2
  }
]

----------
- ASSAYED_SYSTEM: Coagulation factor X (Bos taurus, UniProt P00743)
- Sequence (P00743 41-180 limits assumed): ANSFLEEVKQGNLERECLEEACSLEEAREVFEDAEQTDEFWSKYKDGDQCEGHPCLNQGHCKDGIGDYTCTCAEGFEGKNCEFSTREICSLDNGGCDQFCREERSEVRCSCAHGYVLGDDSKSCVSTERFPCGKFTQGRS
- Sequence (P00743 234-492 limits assumed): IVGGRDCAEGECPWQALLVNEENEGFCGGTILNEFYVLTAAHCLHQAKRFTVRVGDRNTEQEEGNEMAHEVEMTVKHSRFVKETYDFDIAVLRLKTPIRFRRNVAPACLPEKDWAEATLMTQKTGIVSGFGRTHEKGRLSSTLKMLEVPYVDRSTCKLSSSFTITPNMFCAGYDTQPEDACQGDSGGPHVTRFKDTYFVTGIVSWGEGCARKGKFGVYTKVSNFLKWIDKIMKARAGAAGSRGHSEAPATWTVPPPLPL
- ASSAY_OVERVIEW: In vitro concentration of compound required to inhibit 50% of factor Xa
pIC50: −log10 of the molar value. Non-standard residues stand in square brackets, D forms with d. Residues, ends and D or L forms follow the SMILES beside them. dNMePhg = CN[C@@H](C(=O)O)c1ccccc1
MEASURE: pIC50

[
  {
    "COMPOUND": "CN[C@@H](C(=O)N1CCC[C@H]1C(=O)N[C@H](C=O)CCCNC(=N)N)c1ccccc1 (H-[dNMePhg]-Pro-Arg-aldehyde)",
    "RESULT_VALUE": 5.66
  }
]

----------
- ASSAYED_SYSTEM: Coagulation factor X (Bos taurus)
- ASSAY_OVERVIEW: In vitro concentration of compound required to inhibit 50% of Factor Xa
MEASURE: IC50 (nM)

[
  {
    "SMILES_NOTATION": "COC(=O)c1oc2c(sc3ccccc32)c1OC(=O)C(C)C",
    "ASSAYED_SYSTEM": "Coagulation factor X (Bos taurus)",
    "MEASURE": "IC50",
    "READOUT_UNIT": "nM",
    "RESULT_VALUE": 100
  }
]

----------
- ASSAYED_SYSTEM: Plasminogen (Homo sapiens, UniProt P00747)
- Sequence (P00747 97-580 limits assumed): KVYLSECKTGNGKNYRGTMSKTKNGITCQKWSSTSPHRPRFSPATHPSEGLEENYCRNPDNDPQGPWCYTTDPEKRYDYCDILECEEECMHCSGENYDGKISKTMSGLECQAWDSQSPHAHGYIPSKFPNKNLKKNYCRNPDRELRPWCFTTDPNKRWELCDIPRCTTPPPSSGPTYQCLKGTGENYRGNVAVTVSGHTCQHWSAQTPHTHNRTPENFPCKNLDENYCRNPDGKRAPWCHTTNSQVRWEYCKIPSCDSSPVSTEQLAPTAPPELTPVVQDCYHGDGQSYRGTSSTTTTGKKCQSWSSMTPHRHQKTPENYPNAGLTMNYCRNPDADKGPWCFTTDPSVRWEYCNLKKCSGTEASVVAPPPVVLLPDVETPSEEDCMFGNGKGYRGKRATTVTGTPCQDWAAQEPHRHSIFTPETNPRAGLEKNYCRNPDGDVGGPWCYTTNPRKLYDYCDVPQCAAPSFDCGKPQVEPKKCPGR
- Sequence (P00747 581-810 limits assumed): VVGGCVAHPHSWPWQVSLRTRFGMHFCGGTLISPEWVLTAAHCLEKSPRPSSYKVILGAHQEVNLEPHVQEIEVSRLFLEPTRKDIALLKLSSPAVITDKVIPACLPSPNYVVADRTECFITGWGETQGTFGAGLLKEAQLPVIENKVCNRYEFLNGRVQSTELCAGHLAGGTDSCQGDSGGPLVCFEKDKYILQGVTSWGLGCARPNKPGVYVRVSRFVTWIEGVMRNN
- ASSAY_OVERVIEW: In vitro concentration of compound required to inhibit 50% of plasmin
pIC50: −log10 of the molar value. Non-standard residues stand in square brackets, D forms with d. Residues, ends and D or L forms follow the SMILES beside them. dNMePhg = CN[C@@H](C(=O)O)c1ccccc1
MEASURE: pIC50

[
  {
    "COMPOUND": "CN[C@@H](C(=O)N1CCC[C@H]1C(=O)N[C@H](C=O)CCCNC(=N)N)c1ccccc1 (H-[dNMePhg]-Pro-Arg-aldehyde)",
    "MEASURE": "pIC50",
    "RESULT_VALUE": 6.30
  }
]
